system: Es-2; assay: Primary qHTS to identify gynecologic anti-cancer compounds using libraries of approved drugs and bioactive compounds (AID 1345084); details: Gynecologic cancer cell panel viability, ATPlite luminescence, 48 h; series mostly up to 57.5 µM; further: nearly all actives have a fitted effect of over 55% in size
Inconclusive results are not listed. Activity calls are given as the source filed them. The call rests on the fitted dose curve; in most records, active means well fitted cell-killing curve with a large enough effect; inconclusive means small, poorly fitted or top-dose-only effect, or effect the other way; inactive means flat fitted curve, though single readings scatter.
Labels: T (active), F (inactive)

INSERT INTO measurements (compound, answerlabel) VALUES
  ('O=C(OC[C@H]1O[C@@H](Oc2ccc(O)cc2CO)[C@H](O)[C@@H](O)[C@@H]1O)c1ccccc1', 'F'),
  ('CC1=C[C@H]2O[C@@H]3C[C@H]4OC(=O)/C=C/C=C/C(=O)OCC/C(C)=C/C(=O)OC[C@@]2(CC1)[C@]4(C)[C@]31CO1', 'T'),
  ('CC1CCCC(=O)CCC/C=C/c2cc(O)cc(O)c2C(=O)O1 (centres undefined)', 'F'),
  ('CC1=CC2OC3[C@H](O)C[C@@](C)([C@]34CO4)[C@@]2(CO)[C@H](O)C1=O (some centres undefined)', 'T');

====

test system: SKOV3; assay: Primary qHTS to identify gynecologic anti-cancer compounds using libraries of approved drugs and bioactive compounds (AID 1345084); settings: Gynecologic cancer cell panel viability, ATPlite luminescence, 48 h; series mostly up to 57.5 µM; further: nearly all actives have a fitted effect of over 55% in size
Results filed as inconclusive are left out. Activity calls are given as the source filed them. Calls follow the shape of the dose curve; as a rule, active = well fitted cell-killing curve with a large enough effect; inconclusive = small, poorly fitted or top-dose-only effect, or effect the other way; inactive = flat fitted curve, though single readings scatter.
Labels: 1 = active, -1 = inactive

INSERT INTO assay_data (compound, answerlabel) VALUES
  ('C[C@H]1CN(Cc2ccc(CC(=O)N3CCC(Nc4cccc(F)c4)CC3)cc2)CCN1', -1),
  ('NC(=O)c1ncn2c1CN=C(c1ccccc1Br)c1cc(F)ccc1-2', -1),
  ('CC[C@@H]1C[C@H]2CC[C@H](O2)[C@H](C)C(=O)O[C@@H](C)C[C@@H]2CC[C@@H](O2)[C@@H](C)C(=O)O[C@H](C)C[C@H]2CC[C@H](O2)[C@H](C)C(=O)O[C@@H](C)C[C@@H]2CC[C@@H](O2)[C@@H](C)C(=O)O1', 1),
  ('CC1(C)C(=O)N(c2ccc(C#N)c(C(F)(F)F)c2)C(=O)N1CCCCO', -1),
  ('O=S(=O)(c1ccccc1F)N1CCOc2c(N3CCNCC3)cccc21', -1),
  ('COc1ccc(C(C)(C)C)cc1CN[C@H]1C2CCN(CC2)[C@H]1C(c1ccccc1)c1ccccc1', -1),
  ('O=C(N1CCCCC1Cc1ccccc1)n1cc(-c2ccc(-c3ccccc3)cc2)nn1 (stereo not drawn)', -1),
  ('CC[C@H]1C2CC3[C@@H]4N(C)c5ccccc5[C@]45C[C@@H]([C@H]2[C@H]5O)N3[C@H]1O', -1);

====

assay: qHTS for Inhibitors of the Functional Ribonucleoprotein Complex (vRNP) of Lassa (LASV) Arenavirus: LASV Primary Screen - GLuc reporter signal (AID 1347082); settings: LASV minigenome vRNP, Gaussia luciferase reporter; series mostly up to 57.5 µM; further: nearly all actives have a fitted effect of over 60% in size
Inconclusive results are not listed. Activity calls are given as the source filed them. The call rests on the fitted dose curve; tested in HEK293 reporter line.
Labels: TRUE for active, FALSE for inactive

INSERT INTO assay_data (compound, answerlabel) VALUES
  ('C/C=C\C/C=C/CCCCCCCCOC(C)=O', 'FALSE'),
  ('COc1cc2oc(=O)ccc2c(OC)c1CC(O)C(C)(C)O (stereo unspecified)', 'FALSE'),
  ('CCn1cc(-c2ccnc3[nH]c(-c4cccc(CN(C)C)c4)cc23)c(-c2ccc(NC(=O)N(C)C)cc2)n1', 'TRUE'),
  ('Cc1cc(Nc2cc(CN3CCOCC3)c3nc(C)c(Cc4ccc(Cl)cc4F)n3n2)n[nH]1', 'FALSE'),
  ('C=C(C)[C@@H]1CCC2=CC(=O)C[C@@H](C)[C@]2(C)C1', 'FALSE'),
  ('C[C@@H]1C[C@H]2[C@@H]3C[C@H](F)C4=CC(=O)C=C[C@@]4(C)[C@]3(F)[C@H](O)C[C@]2(C)[C@@]1(O)C(=O)CO', 'FALSE'),
  ('Oc1ccccc1Cl', 'FALSE'),
  ('CN(C)c1ccccc1CN1CCCN(Cc2ccccc2N(C)C)C1c1ccncc1', 'FALSE'),
  ('CO/N=C(\C(=O)N[C@@H]1C(=O)N2C(C(=O)O)=C(CSc3nc(=O)c(O)nn3C)CSC12)c1csc(N)n1 (stereo partly specified)', 'FALSE'),
  ('CCC/C=C/CO', 'FALSE'),
  ('CN[C@H](CC(=O)O)C(=O)O', 'FALSE');
